Cited source for all entries: patent US9796711B2

# maps each entry to its log10 EC50
- target_system: ΔF508-CFTR (Homo sapiens, UniProt P13569, DEL508-508)
- Construct: host or cells: CFBE41o-, doxycycline-inducible
- Sequence (P13569 with tags, fused parts or gaps DEL508-508): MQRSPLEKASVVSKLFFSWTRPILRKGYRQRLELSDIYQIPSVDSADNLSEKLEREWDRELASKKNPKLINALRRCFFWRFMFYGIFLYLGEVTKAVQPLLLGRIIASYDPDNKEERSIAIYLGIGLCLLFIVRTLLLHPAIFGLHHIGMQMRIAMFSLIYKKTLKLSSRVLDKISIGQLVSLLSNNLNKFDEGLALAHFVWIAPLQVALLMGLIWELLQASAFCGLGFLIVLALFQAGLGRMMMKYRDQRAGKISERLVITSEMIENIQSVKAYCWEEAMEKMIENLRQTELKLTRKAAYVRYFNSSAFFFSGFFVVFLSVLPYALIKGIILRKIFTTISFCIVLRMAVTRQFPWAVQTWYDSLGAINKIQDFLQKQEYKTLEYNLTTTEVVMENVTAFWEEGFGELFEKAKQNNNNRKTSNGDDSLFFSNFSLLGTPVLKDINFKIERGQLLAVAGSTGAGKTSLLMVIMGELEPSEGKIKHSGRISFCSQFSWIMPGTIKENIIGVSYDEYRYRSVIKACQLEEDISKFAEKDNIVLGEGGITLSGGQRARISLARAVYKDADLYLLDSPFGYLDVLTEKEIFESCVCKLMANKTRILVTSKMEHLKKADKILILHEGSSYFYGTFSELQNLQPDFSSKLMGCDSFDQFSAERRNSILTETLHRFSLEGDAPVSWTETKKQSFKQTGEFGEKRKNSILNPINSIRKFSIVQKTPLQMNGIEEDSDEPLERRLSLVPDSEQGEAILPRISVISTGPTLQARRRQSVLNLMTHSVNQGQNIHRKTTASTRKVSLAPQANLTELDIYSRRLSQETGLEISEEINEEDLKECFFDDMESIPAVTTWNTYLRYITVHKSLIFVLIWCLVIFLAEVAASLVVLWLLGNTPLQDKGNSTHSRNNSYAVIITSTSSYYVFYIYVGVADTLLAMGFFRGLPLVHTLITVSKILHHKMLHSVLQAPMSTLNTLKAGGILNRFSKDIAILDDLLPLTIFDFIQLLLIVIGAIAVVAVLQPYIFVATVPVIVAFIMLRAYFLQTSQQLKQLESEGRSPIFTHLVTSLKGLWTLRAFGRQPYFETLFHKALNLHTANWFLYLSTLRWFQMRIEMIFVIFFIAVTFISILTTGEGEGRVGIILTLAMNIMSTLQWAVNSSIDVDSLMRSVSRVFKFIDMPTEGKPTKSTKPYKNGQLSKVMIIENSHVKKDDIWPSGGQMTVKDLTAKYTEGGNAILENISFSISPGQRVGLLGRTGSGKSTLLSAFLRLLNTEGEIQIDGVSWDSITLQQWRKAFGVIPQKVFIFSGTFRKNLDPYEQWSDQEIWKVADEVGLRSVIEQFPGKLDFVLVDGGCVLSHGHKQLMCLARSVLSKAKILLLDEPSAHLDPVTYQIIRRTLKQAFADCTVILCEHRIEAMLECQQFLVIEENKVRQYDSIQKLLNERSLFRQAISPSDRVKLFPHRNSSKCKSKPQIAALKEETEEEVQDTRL
- assay_text: CFTR cell surface levels using HRP-tagged ΔF508-CFTR expressing CFBE cells, intrinsic corrector capacity
- Assay type: cell-based
- cond: HRP-tagged ΔF508-CFTR expressing CFBE cells; intrinsic corrector capacity (no co-corrector); 33° C., 20 hours; read-out: EC50
property_name: log10 EC50 (log10 of the value in µM)

{"smiles_text": "CC(C)Oc1nn(C2CCCCC2)c2nc(C(=O)O)cc(-c3ccc(C(=O)N4CCN(C)CC4)cc3)c12", "log10 EC50": 0.52}
{"smiles_text": "Cc1ncn(C)c(=O)c1CCN1CCN(c2cc(C(=O)O)nc3c2c(C2CCC2)nn3-c2ccccc2)CC1", "log10 EC50": 0.52}
{"smiles_text": "CC(=O)N1CCN(c2cc(C(=O)O)nc3c2c(C(C)C)nn3-c2ccc(F)cc2)CC1", "log10 EC50": 0.22}
{"smiles_text": "COCCCN1CCN(c2cc(C(=O)O)nc3c2c(C(C)C)nn3-c2ccc(F)cc2)CC1", "log10 EC50": 0.22}
{"smiles_text": "O=C(O)c1cc(OCCN2CCCCCC2)c2c(C3CCC3)nn(-c3ccccc3)c2n1", "log10 EC50": 0.46}
{"smiles_text": "CC(C)(COc1cc(C(=O)O)nc2c1c(C1CCC1)nn2-c1ccccc1)S(C)(=O)=O", "log10 EC50": 0.52}
{"smiles_text": "COC(C)(C)C1CCN(c2cc(C(=O)O)nc3c2c(C(C)C)nn3-c2ccc(F)cc2)CC1", "log10 EC50": -0.48}
{"smiles_text": "COC1CN(C2CCN(c3cc(C(=O)O)nc4c3c(C3CCC3)nn4-c3ccc(F)cc3)CC2)C1", "log10 EC50": 0.52}

---

Below: a set of entries, each annotated with reported pEC50.
- target_system: ΔF508-CFTR (Homo sapiens, UniProt P13569, DEL508-508)
- Construct: host or cells: CFBE41o-, doxycycline-inducible
- assay_text: CFTR cell surface levels using HRP-tagged ΔF508-CFTR expressing CFBE cells, intrinsic corrector capacity
- Type: cell-based
- cond: HRP-tagged ΔF508-CFTR CFBE41o- cells, compounds alone (intrinsic corrector capacity), 20 hours at 33° C.; read-out: EC50
pEC50: −log10 of the molar value.

{"molecule": "CC(C)c1nn(-c2cccc(C(F)(F)F)c2)c2nc(C(=O)O)cc(-c3ccc(N(C)C4CCOCC4)nc3)c12 [compound 287]", "target_system": "ΔF508-CFTR (Homo sapiens, UniProt P13569, DEL508-508)", "pEC50": 6.27}
{"molecule": "CC(=O)Nc1ccc(-c2cc(C(=O)O)nc3c2c(C(C)C)nn3C2CCCCC2)cc1 [compound 171]", "target_system": "ΔF508-CFTR (Homo sapiens, UniProt P13569, DEL508-508)", "pEC50": 5.92}
{"molecule": "Cc1nn(-c2ccccc2)c2nc(C(=O)O)cc(N3CC4(CCCCO4)C3)c12 [compound 312]", "target_system": "ΔF508-CFTR (Homo sapiens, UniProt P13569, DEL508-508)", "pEC50": 5.60}
{"molecule": "Cc1nn(-c2ccccc2)c2nc(C(=O)O)cc(-c3ccc(N4CCOC(C)(C)C4)cc3)c12 [compound 119]", "target_system": "ΔF508-CFTR (Homo sapiens, UniProt P13569, DEL508-508)", "pEC50": 6.04}
{"molecule": "Cc1cccc(-n2nc(C(C)C)c3c(N4CCC(C#N)CC4)cc(C(=O)O)nc32)c1 [compound 191]", "target_system": "ΔF508-CFTR (Homo sapiens, UniProt P13569, DEL508-508)", "pEC50": 6.00}
{"molecule": "CC(C)c1nn(C2CCCCC2)c2nc(C(=O)O)cc(-c3ccc(N4CCCC(F)C4)nc3)c12 (centres unmarked) [compound 223]", "target_system": "ΔF508-CFTR (Homo sapiens, UniProt P13569, DEL508-508)", "pEC50": 6.15}
{"molecule": "Cc1nn(-c2ccccc2)c2nc(C(=O)O)cc(OCC3(F)CCCN(C4COC4)C3)c12 (centres unmarked) [compound 381]", "target_system": "ΔF508-CFTR (Homo sapiens, UniProt P13569, DEL508-508)", "pEC50": 5.30}
{"molecule": "Cc1nn(-c2cccc(C(F)(F)F)c2)c2nc(C(=O)O)cc(-c3ccc(N4CCOCC4)nc3)c12 [compound 102]", "target_system": "ΔF508-CFTR (Homo sapiens, UniProt P13569, DEL508-508)", "pEC50": 5.98}

---

Here, each record is paired with measured EC50 data.
- target_system: ΔF508-CFTR (Homo sapiens, UniProt P13569, DEL508-508)
- Construct: host or cells: CFBE41o-, doxycycline-inducible
- assay_text: CFTR cell surface levels using HRP-tagged ΔF508-CFTR expressing CFBE cells, intrinsic corrector capacity
- Type: cell-based
- cond: HRP-tagged ΔF508-CFTR expressing CFBE cells; intrinsic corrector capacity (no co-corrector); 33° C., 20 hours; read-out: EC50
- Source text: Measuring CFTR Cell Surface Levels Using HRP-Tagged AF508-CFTR Expressing CFBE Cells The HRP-tagged AF508-CFTR cell assay measures the expression of CFTR-ΔF508 at the plasma membrane. […] When HRP-tagged AF508-CFTR is present at the plasma membrane, the HRP enzyme activity can be measured. The amount of CFTR-ΔF508 that can be rescued to the plasma membrane is correlated with the amount of functional enzyme that can be measured. […]

{"compound": "O=C(O)c1cc(N2CCN(CCCN3CCOCC3)CC2)c2c(C3CCC3)nn(-c3ccccc3)c2n1", "target_system": "ΔF508-CFTR (Homo sapiens, UniProt P13569, DEL508-508)", "EC50": "1.37 µM"}
{"compound": "CCN(CC)C1CCN(c2cc(C(=O)O)nc3c2c(C2CCC2)nn3-c2ccccc2)CC1", "target_system": "ΔF508-CFTR (Homo sapiens, UniProt P13569, DEL508-508)", "EC50": "1.57 µM"}
{"compound": "O=C(O)c1cc(OCCN2CCNC2=O)c2c(C3CCC3)nn(-c3ccccc3)c2n1", "target_system": "ΔF508-CFTR (Homo sapiens, UniProt P13569, DEL508-508)", "EC50": "> 10 µM"}
{"compound": "O=C(O)c1cc(N2CCC(N3CCOCC3)CC2)c2c(C3CCC3)nn(-c3ccnc(OCc4ccccc4)c3)c2n1", "target_system": "ΔF508-CFTR (Homo sapiens, UniProt P13569, DEL508-508)", "EC50": "0.248 µM"}
{"compound": "O=C(O)c1cc(N2CC3(CCOCC3)C2)c2c(C3CCC3)nn(-c3ccccc3)c2n1", "target_system": "ΔF508-CFTR (Homo sapiens, UniProt P13569, DEL508-508)", "EC50": "0.99 µM"}
{"compound": "COC(C)C1CCN(c2cc(C(=O)O)nc3c2c(C2CCC2)nn3-c2ccccc2)CC1 (stereo not shown)", "target_system": "ΔF508-CFTR (Homo sapiens, UniProt P13569, DEL508-508)", "EC50": "0.326 µM"}
{"compound": "CN(C)C[C@H](F)C1CCN(c2cc(C(=O)O)nc3c2c(C2CCC2)nn3-c2ccccc2)CC1", "target_system": "ΔF508-CFTR (Homo sapiens, UniProt P13569, DEL508-508)", "EC50": "1.11 µM"}
{"compound": "O=C(O)c1cc(N2CCCC3(CC3)C2)c2c(C3CCC3)nn(-c3ccccc3)c2n1", "target_system": "ΔF508-CFTR (Homo sapiens, UniProt P13569, DEL508-508)", "EC50": "0.983 µM"}
{"compound": "CC(C)c1nn(-c2ccc(F)cc2)c2nc(C(=O)O)cc(N3CC(N4CCOCC4)C3)c12", "target_system": "ΔF508-CFTR (Homo sapiens, UniProt P13569, DEL508-508)", "EC50": "1.67 µM"}
{"compound": "CC(C)c1nn(-c2ccc(F)cc2)c2nc(C(=O)O)cc(N3CCN(CC4CCCO4)CC3)c12 (stereo not shown)", "target_system": "ΔF508-CFTR (Homo sapiens, UniProt P13569, DEL508-508)", "EC50": "1.43 µM"}
{"compound": "O=C(O)c1cc(N2CCC(F)(CO)CC2)c2c(C3CCC3)nn(-c3ccccc3)c2n1", "target_system": "ΔF508-CFTR (Homo sapiens, UniProt P13569, DEL508-508)", "EC50": "0.646 µM"}
{"compound": "CN1[C@@H]2CC[C@H]1C[C@@H](Oc1cc(C(=O)O)nc3c1c(C1CCC1)nn3-c1ccccc1)C2", "target_system": "ΔF508-CFTR (Homo sapiens, UniProt P13569, DEL508-508)", "EC50": "3.33 µM"}
{"compound": "CN(C)CCCCOc1cc(C(=O)O)nc2c1c(C1CCC1)nn2-c1ccccc1", "target_system": "ΔF508-CFTR (Homo sapiens, UniProt P13569, DEL508-508)", "EC50": "3.33 µM"}
{"compound": "O=C(O)c1cc(N2CCC(N3CCN(C4CC4)CC3)CC2)c2c(C3CCC3)nn(-c3ccc(F)cc3)c2n1", "target_system": "ΔF508-CFTR (Homo sapiens, UniProt P13569, DEL508-508)", "EC50": "0.467 µM"}
{"compound": "O=C(O)c1cc(N2CCC(F)(F)C2)c2c(C3CCC3)nn(-c3ccccc3)c2n1", "target_system": "ΔF508-CFTR (Homo sapiens, UniProt P13569, DEL508-508)", "EC50": "2.05 µM"}
{"compound": "CN(C)CCOCCOc1cc(C(=O)O)nc2c1c(C1CCC1)nn2-c1ccccc1", "target_system": "ΔF508-CFTR (Homo sapiens, UniProt P13569, DEL508-508)", "EC50": "3.33 µM"}
{"compound": "CS(=O)(=O)C1(COc2cc(C(=O)O)nc3c2c(C2CCC2)nn3-c2ccccc2)CCOCC1", "target_system": "ΔF508-CFTR (Homo sapiens, UniProt P13569, DEL508-508)", "EC50": "> 10 µM"}
{"compound": "COC1CCCN(C2CCN(c3cc(C(=O)O)nc4c3c(C3CCC3)nn4-c3ccc(F)cc3)CC2)C1 (stereo not shown)", "target_system": "ΔF508-CFTR (Homo sapiens, UniProt P13569, DEL508-508)", "EC50": "1.6 µM"}
{"compound": "CCN(CC)C(=O)C1CCCN(c2cc(C(=O)O)nc3c2c(C2CCC2)nn3-c2ccccc2)C1 (stereo not shown)", "target_system": "ΔF508-CFTR (Homo sapiens, UniProt P13569, DEL508-508)", "EC50": "0.467 µM"}
{"compound": "CO[C@H]1CC[C@H](Oc2cc(C(=O)O)nc3c2c(C2CCC2)nn3-c2ccccc2)CC1", "target_system": "ΔF508-CFTR (Homo sapiens, UniProt P13569, DEL508-508)", "EC50": "0.979 µM"}
{"compound": "CC(C)c1nn(-c2ccc(F)cc2)c2nc(C(=O)O)cc(N3CCC(N(C)C(C)C)CC3)c12", "target_system": "ΔF508-CFTR (Homo sapiens, UniProt P13569, DEL508-508)", "EC50": "1.67 µM"}
{"compound": "CCOC(=O)N1CCN(C2CCN(c3cc(C(=O)O)nc4c3c(C3CCC3)nn4-c3ccc(F)cc3)CC2)CC1", "target_system": "ΔF508-CFTR (Homo sapiens, UniProt P13569, DEL508-508)", "EC50": "0.0931 µM"}
{"compound": "Cc1cccc(-n2nc(C3CCC3)c3c(N4CCC(N5CCOCC5)CC4)cc(C(=O)O)nc32)c1", "target_system": "ΔF508-CFTR (Homo sapiens, UniProt P13569, DEL508-508)", "EC50": "0.285 µM"}
{"compound": "O=C(O)c1cc(OCCC2CCCCC2)c2c(C3CCC3)nn(-c3ccccc3)c2n1", "target_system": "ΔF508-CFTR (Homo sapiens, UniProt P13569, DEL508-508)", "EC50": "0.665 µM"}
{"compound": "CO[C@H]1CCN(c2cc(C(=O)O)nc3c2c(C2CCC2)nn3-c2ccccc2)C1", "target_system": "ΔF508-CFTR (Homo sapiens, UniProt P13569, DEL508-508)", "EC50": "1.17 µM"}
{"compound": "O=C(O)c1cc(OCC2CCC(F)(F)C2)c2c(C3CCC3)nn(-c3ccccc3)c2n1 (stereo not shown)", "target_system": "ΔF508-CFTR (Homo sapiens, UniProt P13569, DEL508-508)", "EC50": "0.773 µM"}
{"compound": "O=C(O)c1cc(OCCCF)c2c(C3CCC3)nn(-c3ccccc3)c2n1", "target_system": "ΔF508-CFTR (Homo sapiens, UniProt P13569, DEL508-508)", "EC50": "1.86 µM"}
{"compound": "CC1(COc2cc(C(=O)O)nc3c2c(C2CCC2)nn3-c2ccccc2)CC1", "target_system": "ΔF508-CFTR (Homo sapiens, UniProt P13569, DEL508-508)", "EC50": "0.308 µM"}
{"compound": "N#CC1CCN(c2ccc(-c3cc(C(=O)O)nc4c3c([C@H]3C[C@H](F)C3)nn4-c3ccccc3)cn2)CC1", "target_system": "ΔF508-CFTR (Homo sapiens, UniProt P13569, DEL508-508)", "EC50": "0.629 µM"}
{"compound": "CC(C)N1CCN(C2CCN(c3cc(C(=O)O)nc4c3c(C3CCC3)nn4-c3ccc(F)cc3)CC2)CC1", "target_system": "ΔF508-CFTR (Homo sapiens, UniProt P13569, DEL508-508)", "EC50": "0.355 µM"}
{"compound": "CCCCN1CCCN(c2cc(C(=O)O)nc3c2c(C(C)C)nn3-c2ccc(F)cc2)CC1", "target_system": "ΔF508-CFTR (Homo sapiens, UniProt P13569, DEL508-508)", "EC50": "1.58 µM"}
